Cited source: ChEMBL document CHEMBL1156482

target.or.system: C-X-C chemokine receptor type 4 (Homo sapiens, UniProt P61073, T287A)
Sequence (P61073 whole entry T287A, the tested form may be a part): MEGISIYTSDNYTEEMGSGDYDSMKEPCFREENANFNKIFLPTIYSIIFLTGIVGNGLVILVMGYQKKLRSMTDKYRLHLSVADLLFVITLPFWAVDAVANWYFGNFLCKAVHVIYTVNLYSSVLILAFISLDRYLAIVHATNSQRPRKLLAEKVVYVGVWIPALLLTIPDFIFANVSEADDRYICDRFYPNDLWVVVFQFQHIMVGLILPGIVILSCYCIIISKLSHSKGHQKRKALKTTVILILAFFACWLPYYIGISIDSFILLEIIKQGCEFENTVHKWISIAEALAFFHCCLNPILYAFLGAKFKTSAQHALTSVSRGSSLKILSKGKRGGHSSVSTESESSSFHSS
test.name: Displacement of [125I]12G5 antibody from transmembrane domain 7 of human CXCR4 T287A mutant expressed in COS7 cells
Format: cell-based, COS-7
measurement.type: Ki (nM)
# value in nM; strip the unit string

Ki recorded for this molecule, c1ccc(CNCc2ccc(CN3CCCNCCNCCCNCC3)cc2)nc1 , is 2000

----------
System: Human immunodeficiency virus 1
test.name: Antiviral activity against HIV1 clinical isolate 10 infected in U87.CD4 cells expressing human CXCR4 D171N mutant
Type: functional, organism-based
cond: Human immunodeficiency virus 1, U87.CD4
measurement.type: IC50 (µM)
# value in µM; strip the unit string

c1ccc(CNCc2ccc(CN3CCCNCCNCCCNCC3)cc2)nc1    183

IC50 for Human immunodeficiency virus 1 with input c1cc(CN2CCCNCCNCCCNCC2)ccc1CN1CCCNCCNCCCNCC1 equals 0.019
